# target_system: UniProtKB P36888
# Sequence (P36888 whole entry): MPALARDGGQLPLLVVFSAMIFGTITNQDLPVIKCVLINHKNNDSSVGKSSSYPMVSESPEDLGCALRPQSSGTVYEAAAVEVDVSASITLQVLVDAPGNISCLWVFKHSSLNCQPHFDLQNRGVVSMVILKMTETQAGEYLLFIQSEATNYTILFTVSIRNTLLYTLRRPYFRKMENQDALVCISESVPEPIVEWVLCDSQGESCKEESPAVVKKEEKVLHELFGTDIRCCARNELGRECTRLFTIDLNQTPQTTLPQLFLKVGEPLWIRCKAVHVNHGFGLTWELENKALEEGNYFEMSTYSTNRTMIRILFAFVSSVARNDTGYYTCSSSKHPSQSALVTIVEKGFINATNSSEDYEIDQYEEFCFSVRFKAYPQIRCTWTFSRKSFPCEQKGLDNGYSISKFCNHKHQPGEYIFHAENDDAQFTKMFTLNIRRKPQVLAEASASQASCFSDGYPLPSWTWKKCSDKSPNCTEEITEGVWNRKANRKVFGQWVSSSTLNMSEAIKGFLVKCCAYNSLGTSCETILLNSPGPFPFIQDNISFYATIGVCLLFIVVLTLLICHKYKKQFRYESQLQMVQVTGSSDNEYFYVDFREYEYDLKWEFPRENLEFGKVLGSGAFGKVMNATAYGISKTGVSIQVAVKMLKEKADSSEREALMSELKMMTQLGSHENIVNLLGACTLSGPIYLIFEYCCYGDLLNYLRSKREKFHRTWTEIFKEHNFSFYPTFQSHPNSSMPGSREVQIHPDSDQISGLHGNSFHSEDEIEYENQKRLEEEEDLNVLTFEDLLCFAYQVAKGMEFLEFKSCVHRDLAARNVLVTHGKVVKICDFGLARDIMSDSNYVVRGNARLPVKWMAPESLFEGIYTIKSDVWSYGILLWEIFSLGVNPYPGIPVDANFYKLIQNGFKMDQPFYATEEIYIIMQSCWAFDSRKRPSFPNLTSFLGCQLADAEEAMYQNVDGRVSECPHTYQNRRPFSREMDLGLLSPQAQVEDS
Activity calls are given as the source filed them.
Returns: one label drawn from Y for active, N for inactive

Example results:
COc1ncc(-c2ccc3nccc(-c4ccnnc4)c3c2)cc1NS(=O)(=O)c1ccc(F)cc1F [OMIPALISIB]; N
FC(F)(F)c1ccc(/C=C/c2nc(COc3ccc(CCCCn4ccnn4)cc3)co2)cc1 [MUBRITINIB]; N
C=CC(=O)Nc1cc2c(Nc3ccc(F)c(Cl)c3)ncnc2cc1C#CC(C)(C)N1CCN(C)CC1 [AV-412 FREE BASE]; N
C[C@H]1CNCCCN1S(=O)(=O)c1cccc2cncc(F)c12; N
Cc1nc(NC(=O)N2CCC[C@H]2C(N)=O)sc1-c1ccnc(C(C)(C)C(F)(F)F)c1 [ALPELISIB]; N
Cc1cnc(NC(=O)Nc2cc(Br)c(C)cc2OC[C@@H]2CNCCO2)cn1 [RABUSERTIB]; N

Test call for this compound, please: Cc1nc(Nc2n[nH]c3c2CN(C(=O)N[C@H](CN(C)C)c2ccccc2)C3(C)C)c2sccc2n1 [PF-03758309]
Y

The reported numbers originate from ChEMBL document CHEMBL3991601.
